// reported TGI for each item listed
Test system: MIA PaCa-2
Test: Growth inhibition of human MIAPaCa2 cells after 48 hrs by SRB assay
Assay type: functional
Details: MIA PaCa-2, 48 h

| compound | units | TGI |
| --- | --- | --- |
| O=c1[nH]cc(F)c(=O)[nH]1 | µM | 100 |
| CCN1CCN(CCc2ccc(C(c3ccccc3)C34CC5CC(CC(C5)C3)C4)cc2)CC1 (stereo not given) | µM | 49.2 |
| c1ccc(C(c2ccc(CCN3CCCCC3)cc2)C23CC4CC(CC(C4)C2)C3)cc1 (stereo not given) | µM | 63.3 |
| c1ccc(C(c2ccc(CN3CCCCC3)cc2)C23CC4CC(CC(C4)C2)C3)cc1 (stereo not given) | µM | 43.2 |
| CN1CCN(CCc2ccc(C(c3ccccc3)C34CC5CC(CC(C5)C3)C4)cc2)CC1 (stereo not given) | µM | 36 |
